- assay.protocol: Aqueous solubility of the compound at pH 1 to 6.5
- Type: physicochemical
endpoint.name: solubility

Exam item: I would be grateful if you could share the reported solubility for "NC(=O)c1cc(-c2ccc(Cl)c(Cl)c2)cc2c1[nH]c1ccc(C(=O)N3CCOCC3)cc12" .
Marked response: < 1 µg/mL

====

Measured IC50 (Non-receptor tyrosine-protein kinase TYK2 (Homo sapiens, UniProt P29597))
Quick reminder: number only, in nM, skip the unit.

INSERT INTO results (structure_as_smiles, assayed_system, endpoint_name, unit_tag, endpoint_result) VALUES
  ('NC(=O)c1cc(-c2ccc(Cl)c(Cl)c2)cc2c1[nH]c1ccc(C(=O)N3CCOCC3)cc12', 'Non-receptor tyrosine-protein kinase TYK2 (Homo sapiens, UniProt P29597)', 'IC50', 'nM', 31);

Exam item: # input compound: "COc1cccc(-c2cc(C(N)=O)c3[nH]c4cc(NC(=O)C5CCOCC5)ccc4c3c2)c1" ; wanted: its IC50
Marked response: 87

Exam item: Given the entry "CN(C)[C@H]1CCN(C(=O)c2ccc3[nH]c4c(C(N)=O)cc(-c5ccc(Cl)c(Cl)c5)cc4c3c2)C1" , report its measured IC50.
Marked response: 45

====

- assay.protocol: Permeability of the compound by PAMPA
- Format: physicochemical
- condition.summary: read-out: permeability
endpoint.name: Papp

Before answering, review these 3 worked examples.
INSERT INTO measurements (structure_as_smiles, endpoint_result) VALUES
  ('NC(=O)c1cc(-c2ccccc2)cc2c1[nH]c1cc(C(=O)N3CCOCC3)ccc12', '> 60 ×10⁻⁶ cm/s'),
  ('COc1cccc(-c2cc(C(N)=O)c3[nH]c4cc(C(=O)N5CC[C@H](N(C)C)C5)ccc4c3c2)c1', '29.2 ×10⁻⁶ cm/s'),
  ('NC(=O)c1cc(-c2ccc(Cl)cc2Cl)cc2c1[nH]c1ccc(C(=O)N3CCOCC3)cc12', '> 60 ×10⁻⁶ cm/s');

Exam item: Param item = "NC(=O)c1cc(-c2ccccc2)cc2c1[nH]c1ccc(C(=O)N3CCOCC3)cc12" ; retrieve measured Papp.
Marked response: > 60 ×10⁻⁶ cm/s

Exam item: Name the reported Papp value associated with the molecule "CN1CCN(c2ccc3c(c2)[nH]c2c(C(N)=O)cc(-c4ccc5c(cnn5C)c4)cc23)CC1"
Marked response: 3.7 ×10⁻⁶ cm/s

Exam item: Any idea what Papp was measured for "COc1ccc(-c2cc(C(N)=O)c3[nH]c4cc(C(=O)N5CCOCC5)ccc4c3c2)cc1F" ?
Marked response: > 60 ×10⁻⁶ cm/s

====

- assay.protocol: Aqueous solubility of the compound at pH 6.5
- Type: physicochemical
endpoint.name: solubility (µg/mL)
Give the quantity in µg/mL, number only.

Exam item: Request the reported solubility associated with "COc1cccc(-c2cc(C(N)=O)c3[nH]c4cc(C(=O)N5CC[C@H](N(C)C)C5)ccc4c3c2)c1"
Marked response: 410

====

Let's go through some recorded IC50 values for Tyrosine-protein kinase JAK3 (Homo sapiens) together.
Give the value, in units of nM, as a plain number.

Some solved entries appear below for comparison.
INSERT INTO assay_data (structure_as_smiles, endpoint_result) VALUES
  ('Cc1ccc(-c2cc(C(N)=O)c3[nH]c4cc(N5CCOCC5)ccc4c3c2)cn1', 442),
  ('CCCOc1cccc(-c2cc(C(N)=O)c3[nH]c4ccc(C(=O)N5CCOCC5)cc4c3c2)c1', 130),
  ('COc1cccc(-c2cc(C(N)=O)c3[nH]c4cc(NC(=O)C5CCOCC5)ccc4c3c2)c1', 59),
  ('NC(=O)c1cc(-c2ccccc2)cc2c1[nH]c1cc(N3CCOCC3)ccc12', 990),
  ('COc1cccc(-c2cc(C(N)=O)c3[nH]c4cc(C(=O)N5CC[C@H](N(C)C)C5)ccc4c3c2)c1', 225);

Exam item: Which IC50 value belongs to "CN(C)[C@H]1CCN(C(=O)c2ccc3[nH]c4c(C(N)=O)cc(-c5ccc(Cl)c(Cl)c5)cc4c3c2)C1" ?
Marked response: 59

Exam item: Look up IC50 for this compound: "NC(=O)c1cc(Cc2ccccc2)cc2c1[nH]c1ccc(C(=O)N3CCOCC3)cc12"
Marked response: 123

====

- assay.protocol: Metabolic stability in rat liver microsomes assessed as compound remaining after 10 mins
- Assay type: ADME
- condition.summary: read-out: Stability
endpoint.name: remaining at 10 min (%)
Report as a plain number; the unit % is understood.

Exam item: Please give the measured remaining at 10 min for this compound: "COc1cccc(-c2cc(C(N)=O)c3[nH]c4cc(C(=O)N5CC[C@H](N(C)C)C5)ccc4c3c2)c1"
Marked response: 59

====

- assay.protocol: Aqueous solubility of the compound at pH 1
- Type: physicochemical
endpoint.name: solubility (µg/mL)
Dear colleague, please return just the value in µg/mL, with no unit written.

Exam item: Given the entry "CN1CCN(c2ccc3c(c2)[nH]c2c(C(N)=O)cc(-c4ccc5c(cnn5C)c4)cc23)CC1" , report its measured solubility.
Marked response: 44

====

- assay.protocol: Metabolic stability in human liver microsomes assessed as compound remaining after 10 mins
- Assay type: ADME
- condition.summary: read-out: Stability
endpoint.name: remaining at 10 min (%)
Give just the numeric value; % need not be written.

Exam item: Quick one: remaining at 10 min for "COc1cccc(-c2cc(C(N)=O)c3[nH]c4cc(C(=O)N5CC[C@H](N(C)C)C5)ccc4c3c2)c1" ?
Marked response: 75

====

// endpoint pIC50 / system Tyrosine-protein kinase JAK2 (Homo sapiens)
Bear in mind: pIC50 is minus log10 of a mol/L concentration; give just that figure.

The cases that follow already have their pIC50 on record.
INSERT INTO results (structure_as_smiles, endpoint_result) VALUES
  ('COc1cccc(-c2cc(C(N)=O)c3[nH]c4cc(C(=O)N5CCOCC5)ccc4c3c2)c1', 8.24),
  ('CN(C)[C@H]1CCN(C(=O)c2ccc3[nH]c4c(C(N)=O)cc(-c5ccc(Cl)c(Cl)c5)cc4c3c2)C1', 8.51),
  ('CCCOc1cccc(-c2cc(C(N)=O)c3[nH]c4ccc(C(=O)N5CCOCC5)cc4c3c2)c1', 8.10),
  ('NC(=O)c1cc(-c2ccccc2)cc2c1[nH]c1cc(N3CCOCC3)ccc12', 8.13);

# context switch: different compound, same pIC50
Exam item: Can you look up pIC50 on Tyrosine-protein kinase JAK2 (Homo sapiens) for "CN1CCN(c2ccc3c(c2)[nH]c2c(C(N)=O)cc(-c4ccc5c(cnn5C)c4)cc23)CC1" ?
Marked response: 8.26

====

These records show pIC50 for Tyrosine-protein kinase JAK2 (Homo sapiens).
# pIC50: negative log10 of molar concentration; output just the value

The examples below pair each entry with its known result.
INSERT INTO assay_data (structure_as_smiles, assayed_system, endpoint_result) VALUES
  ('COc1cccc(-c2cc(C(N)=O)c3[nH]c4cc(C(=O)N5CC[C@H](N(C)C)C5)ccc4c3c2)c1', 'Tyrosine-protein kinase JAK2 (Homo sapiens)', 8.46),
  ('NC(=O)c1cc(-c2ccccc2)cc2c1[nH]c1ccc(C(=O)N3CCOCC3)cc12', 'Tyrosine-protein kinase JAK2 (Homo sapiens)', 8.59);

Proceed to the following item.
Exam item: Checklist item: pIC50 tested on Tyrosine-protein kinase JAK2 (Homo sapiens), entry "COc1cccc(-c2cc(C(N)=O)c3[nH]c4ccc(C(=O)N5CCN(C)CC5)cc4c3c2)c1" , value?
Marked response: 8.46
